assay: Antiproliferative activity against estrogen receptor negative human MDA-MB-436 cells
reported.property: GI50 (µM)

a. COc1c(O)ccc(-c2coc3cc(O)cc(O)c3c2=O)c1O
b. COc1c(O)ccc(-c2coc3cc(O)ccc3c2=O)c1O
c. O=c1c([C@]2(O)CC[C@@H](O)[C@H](O)C2)coc2cc(O)cc(O)c12
Data request: Hey, quick one: sort these by GI50, low to high? Return the labels ranked in the requested order, please.
Data returned: a, b, c
